Listed here are compounds together with their documented PT.
# Organism: Rattus norvegicus
# run-description: Open TG-GATES - Regimen: Single
# Type: toxicity, organism-based, Sprague-Dawley
# Parameters: regimen Single, gender Male, age 6 weeks
# condition-info: in vivo, po, 300 mg/kg, 3 h, tissue Blood, route gavage, dose level Middle
observed-property: PT (s)

- NC(N)=Nc1nc(CSCCC(N)=NS(N)(=O)=O)cs1 [FAMOTIDINE]: 12.6
- COc1ccc2[nH]c([S+]([O-])Cc3ncc(C)c(OC)c3C)nc2c1 (centres undefined) [OMEPRAZOLE]: 12.7
- COC1=CC(=O)C[C@@H](C)[C@]12Oc1c(Cl)c(OC)cc(OC)c1C2=O [GRISEOFULVIN]: 12.9
- CCOC(=O)CCC(=O)O[C@H]1[C@H](O[C@@H]2[C@@H](C)[C@H](O[C@H]3C[C@@](C)(OC)[C@@H](O)[C@H](C)O3)[C@@H](C)C(=O)O[C@H](CC)[C@@](C)(O)[C@H](O)[C@@H](C)C(=O)[C@H](C)C[C@@]2(C)O)O[C@H](C)C[C@@H]1N(C)C [ERYTHROMYCIN ETHYLSUCCINATE]: 15.7
